target: P2Y purinoceptor 1 (Homo sapiens); experiment: Antagonistic activity against P2Y purinoceptor 1
Sequence (P47900 whole entry): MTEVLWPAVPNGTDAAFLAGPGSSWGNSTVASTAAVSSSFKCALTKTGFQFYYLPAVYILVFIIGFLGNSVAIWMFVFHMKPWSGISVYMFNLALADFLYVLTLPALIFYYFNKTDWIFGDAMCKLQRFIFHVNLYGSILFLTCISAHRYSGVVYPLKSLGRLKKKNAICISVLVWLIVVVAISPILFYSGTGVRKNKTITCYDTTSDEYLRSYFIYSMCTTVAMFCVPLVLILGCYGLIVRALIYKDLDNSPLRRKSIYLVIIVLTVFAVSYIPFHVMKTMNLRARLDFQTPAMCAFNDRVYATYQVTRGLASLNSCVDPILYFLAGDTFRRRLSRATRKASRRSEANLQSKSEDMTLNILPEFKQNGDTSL
PARAMETER_MEASURED: IC50 (nM)

CNc1nc(F)nc2c1ncn2[C@H]1C[C@H](OP(=O)(O)O)[C@]2(COP(=O)(O)O)C[C@H]12; 356

[I] CCCC/C=C/c1nc(NC)c2ncn([C@H]3C[C@H](OP(=O)(O)O)[C@]4(COP(=O)(O)O)C[C@H]34)c2n1
[II] CNc1nc(C)nc2c1ncn2[C@H]1C[C@H](OP(=O)(O)O)[C@]2(COP(=O)(O)O)C[C@H]12
[III] CNc1nc(SC)nc2c1ncn2[C@H]1C[C@H](OP(=O)(O)O)[C@]2(COP(=O)(O)O)C[C@H]12
Rank entries according to their IC50, from the largest number down. Your reply should list the labels following the order given in the request. I, III, II

* * *

molecular target: UniProt P47900; assay: Antagonistic activity against P2Y purinoceptor 1
pIC50: −log10 of the molar value.
PARAMETER_MEASURED: pIC50

Worked examples follow.
CNc1ncnc2c1ncn2[C@H]1C[C@H](OP(=O)(O)O)[C@]2(COP(=O)(O)O)C[C@H]12; 6.80
CCCCCCc1nc(NC)c2ncn([C@H]3C[C@H](OP(=O)(O)O)[C@]4(COP(=O)(O)O)C[C@H]34)c2n1; 6.34
Nc1nc(I)nc2c1ncn2C1CC(OP(=O)(O)O)[C@]2(COP(=O)(O)O)C[C@H]12 (stereo not given in full); 7.06

[A] CNc1nc(I)nc2c1ncn2[C@H]1C[C@H](OP(=O)(O)O)[C@]2(COP(=O)(O)O)C[C@H]12
[B] CNc1nc(Br)nc2c1ncn2C1CC(OP(=O)(O)O)[C@]2(COP(=O)(O)O)C[C@H]12 (stereo not given in full)
Two entries are listed, A and B . Which one carries the higher pIC50? # respond with the chosen item's label A
(A: 8.08, B: 7.43)

* * *

molecular target: P2Y purinoceptor 1 (Homo sapiens)
PARAMETER_MEASURED: Ki (nM)

CSc1nc(N)c2ncn([C@H]3C[C@H](OP(=O)(O)O)[C@]4(COP(=O)(O)O)C[C@H]34)c2n1; 863
CNc1nc(Cl)nc2c1ncn2[C@H]1C[C@H](OP(=O)(O)O)[C@]2(COP(=O)(O)O)C[C@H]12; 2.5
CNc1nc(Br)nc2c1ncn2C1CC(OP(=O)(O)O)[C@]2(COP(=O)(O)O)C[C@H]12 (stereo not given in full); 5.1

[a] CCCC/C=C\c1nc(NC)c2ncn([C@H]3C[C@H](OP(=O)(O)O)[C@]4(COP(=O)(O)O)C[C@H]34)c2n1
[b] Nc1nc(I)nc2c1ncn2C1CC(OP(=O)(O)O)[C@]2(COP(=O)(O)O)C[C@H]12 (stereo not given in full)
I'm curious, which of these has a smaller Ki number: a or b ? # respond with the chosen item's label b

* * *

biological target: P2Y purinoceptor 1 (Homo sapiens); assay: Antagonistic activity against P2Y purinoceptor 1
PARAMETER_MEASURED: IC50 (nM)

CNc1nc([Se]C)nc2c1ncn2C1CC(OP(=O)(O)O)[C@]2(COP(=O)(O)O)C[C@H]12 (some centres undefined); 377

[I] CNc1nc(Cl)nc2c1ncn2[C@H]1C[C@H](OP(=O)(O)O)[C@]2(COP(=O)(O)O)C[C@H]12
[II] CSc1nc(N)c2ncn([C@H]3C[C@H](OP(=O)(O)O)[C@]4(COP(=O)(O)O)C[C@H]34)c2n1
[III] CCCC/C=C\c1nc(NC)c2ncn([C@H]3C[C@H](OP(=O)(O)O)[C@]4(COP(=O)(O)O)C[C@H]34)c2n1
Rank entries according to their IC50, from the largest number down. Your reply should list the labels following the order given in the request. III, II, I
(III: 2400 nM, II: 367 nM, I: 52 nM)
